- Tested on: Crude diglycosidase
- Test Method Notes: Examination of pH in the conversion into isoflavone aglycons by diglycosidase using soybean materials
- Type: biochemical, Penicillium multicolor IAM7153
- Study Conditions: pH11.6, heat treatment of enzyme no, reaction time 3 h, 55° C.
Reported Metric: Decomposition efficiency of glycitin family in soymilk

| Mol Smiles | Experimental System | Measured |
| --- | --- | --- |
| COc1cc2c(=O)c(-c3ccc(O)cc3)coc2cc1O | Crude diglycosidase | 53.5 |
| COc1cc2c(=O)c(-c3ccc(O)cc3)coc2cc1O[C@@H]1O[C@H](COC(=O)CC(=O)O)[C@@H](O)[C@H](O)[C@H]1O | Crude diglycosidase | 46.5 |
